- TARGET_UNDER_TEST: T1, ARHGAP21, Q5T5U3
- T1 sequence (Q5T5U3 45-169, limits assumed, looked up): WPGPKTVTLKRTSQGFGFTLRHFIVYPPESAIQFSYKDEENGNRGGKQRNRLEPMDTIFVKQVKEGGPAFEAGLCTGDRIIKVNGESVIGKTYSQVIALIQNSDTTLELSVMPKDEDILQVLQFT
- EXPERIMENTAL_DETAILS: holdup assay
- Parameters: key: below the threshold = too weak to quantify, mostly under pKd 3.1 to 4
- EXPERIMENTAL_SETUP: plain residues with an end cap or a label only (N-terminal biotin on a linker: ado-ado)
MEASURED_ATTRIBUTE: pKd
API doc: respond with a numeric literal and nothing else, no unit.

// query Tell me pKd reported for PDSYHRRDFW [U2AF2, P26368]
// result 4.08

// query Tell me pKd reported for SRPHTNETSL [MCC, P23508]
// result 4.01

// query Tell me pKd reported for KLQNPNQSVV [TYRP1, P17643]
// result 3.98

// query Tell me pKd reported for SQDPKKPSRV [CBY2, Q8NA61]
// result 4.04

// query Tell me pKd reported for ELKAEDEVQI [DCHS2, Q6V1P9]
// result 3.92

// query Tell me pKd reported for NSTHNLKDYV [CLDN20, P56880]
// result 3.89

Hey, just so you know, these numbers are from paper PMC9482650.
